- Test: yeast display, Sf9 membrane polyspecificity reagent, FACS + sequencing; frameworks hold sequencing errors
Measured quantity: polyreactivity (PSR sort gate)

1) QVQLEESGVGLVQAGGSLRFSCAASGRIFYSYAMGCDRQAPGKERELVATISSAGSTYYADSVKGRFTISRDNAKNTVYLQMNSLKPEDTAVYYCAARRPRRYGYWGLGTQVTVSS : high polyreactivity
2) QVQLVESGGGLVQAGGSLRLSCAASGRTFRFYAMGWYRQAPGKERELVAAITSGGSTTYADSVKGRFTISRDNAKNTVYLQMNSLKPEDTAVYYCNADRARAYDYWGQGTQVTVSS : high polyreactivity

###

- Test: yeast display, Sf9 membrane polyspecificity reagent, FACS + sequencing; frameworks hold sequencing errors
Measured quantity: polyreactivity (PSR sort gate)

1) QVQLVESGGGLVQAGGSLRLSCAASGRTFRYNAMGWYRQAPGKERELVAGITYNGGSTSYADSVKGRFTISRDNAKNTVYLQMNSLKPEDTAVYYCNVVYNYYGRFGSWGQGTQVTVSS : high polyreactivity
2) QGQLEESGGGLVQAGGSLRLSCAASGFTIYRYAKGWYRQAPGKAMELVAAISNSGGSTYYADSVKGRFTISRDNAKNTVYVQMNSLKPEDTAVYYCAADPGYNVYGYYYWGQGTQVTVSS : high polyreactivity

###

- Test: yeast display, Sf9 membrane polyspecificity reagent, FACS + sequencing; frameworks hold sequencing errors
Measured quantity: polyreactivity (PSR sort gate)

1) QVQLVESGGGLVQAGGSLRLSCAASGLSSLRMLWDGIDRRLGKKGSWLPLITSGGDSTNYADSVKGRFTISRDIAKNTVYLQMNSLKPEDTAVYYCAADLDYPYGYWGQGTQVTVSS : low polyreactivity
2) QVQLVESGGGLVQAGGSLRLSCAASGSIFYFNAMGWYRQAPGKERELVAAISTSGGSTYADSVKGRFTISRDNAKNTVYLQMNSLKPEDTAVYYCAADFLTSRSRTFDYWGQGTQVTVSS : low polyreactivity
3) QVQLVESGGGLVQAGGSLLLSCAASGSTFYKNAMGWYRQAPGKERELVAAISSGGSTYYADSVKGRFTISRDNAKNTVYLQMNSLKPEDTAVYYCAADYYYIVDYWGQGTQVTVSS : high polyreactivity
4) QVQLEESGGGLVQAGGSLRISCAASGRIFRKYTMGWYRQAPGKERELVAAITGTGGSTYYADSVKGRFTISRDNAKNTVYLQMNSLKPVVTAVYYCAADYSARYGYWGQGTQVTVSS : high polyreactivity
5) QVQLVESGGGLVQAGGSLRLSCAASGLIFRRYAMGWYRQAPGKERELVAAISRTGGTTYYADSVKGRFTISRDTAKNTVYLQMNSLKPEDTAVYYCAAAGQGPDYDYWGQGTQVSVSS : high polyreactivity
6) QVQLVESGGGLVQAGGSLRLSCAASGRIFGRYAMGWYRQAPGKERGLVAAITRRGGNTYYADSVKGRFTISRDNAKNTVYLQMNSLKPEDTAVYYCNDDTSTYAIRGQWSWYDYWGQGTQVTVSS : high polyreactivity
7) QVQLVESGGGLVQAGGSLRLSCAASGRIFGAYAMGWYRQAPGKERELVAAISSGGSTNYADSVKGRFTISRDNAKNTVYLQMNSLKPEDTAVYYCAAERLYSWYYYKYNSEFYYWGQGTQVTVSS : low polyreactivity
8) QVQLVESGGGLVQAGGSLRLSCAASGRTFPGNAMGWYRQAPGKERELVAAITSSGSTNYADSVKGRFTISRDNAKNTVYLQMNSLKPEDTAVYYCNAAWFYVYGVWILDWGQGTQVTVSS : low polyreactivity
9) PVQLQESGGGLMQAGGNLRLSCAASGYISTHYDMDWYRQAPGKERELVARIDDGAITNYADSVKGRFTISRDNAKNTVYLQMNSLKPEDTAVYYCAVYSGDDYYHDYWGQGTQVTVSS : low polyreactivity
10) QVQRVESGGGLVQAGGSLRLSSAACGRIFSTYAMGRYRQAPGKERDLVPAIDWDGGGTYYADSVKGRFTISRDNAKNTVYLQMNSLKPEDTAVYYCAAETDLANGTSPSDYWGQGTQVTVSS : low polyreactivity
11) QVQLVESGGGLVQAGGSLRLSCAASGRTFAYYAMGWYRQAPGKERELVAAIDSSGGDTYYADSVKGRFTISRDNAKNTVYLQMNSLKPEDTAVYYCAADYYWEMDSWGQGTQVTVSS : low polyreactivity
